system-under-test: Cytochrome P450 2C9 (Homo sapiens) (UniProt P11712)
Sequence (P11712 whole entry, looked up): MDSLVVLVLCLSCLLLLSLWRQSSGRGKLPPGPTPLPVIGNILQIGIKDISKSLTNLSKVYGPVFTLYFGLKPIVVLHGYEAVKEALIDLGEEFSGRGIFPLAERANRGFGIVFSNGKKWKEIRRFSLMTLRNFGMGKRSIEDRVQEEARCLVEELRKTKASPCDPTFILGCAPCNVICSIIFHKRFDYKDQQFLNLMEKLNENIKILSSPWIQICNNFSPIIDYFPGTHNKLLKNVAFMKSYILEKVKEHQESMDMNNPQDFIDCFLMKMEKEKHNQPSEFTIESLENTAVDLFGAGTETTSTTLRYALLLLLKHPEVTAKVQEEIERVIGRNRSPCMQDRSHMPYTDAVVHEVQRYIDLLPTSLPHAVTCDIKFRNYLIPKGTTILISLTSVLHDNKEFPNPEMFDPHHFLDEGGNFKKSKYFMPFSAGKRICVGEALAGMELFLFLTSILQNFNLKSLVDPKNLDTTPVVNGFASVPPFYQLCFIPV
assay-summary: Cytochrome panel assay with activity outcomes
particulars: recombinant CYP, pro-luciferin dealkylation, luminescence, p450-cyp2c9; series mostly up to 57.1 µM
Protocol: The P450 gene superfamily is involved in the metabolism and clearance of xenobiotics. This assay used various human CYP P450 isozymes to measure the dealkylation of various pro-luciferin substrates to luciferin. The luciferin is then measured by luminescence after the addition of a luciferase detection reagent. […] Inhibitors and some substrates limit the production of luciferin, and decrease measured luminescence. […] 8, Detection, 1 sec, ViewLux luminescent read […]
The campaign covered roughly 16,000 compounds. About 4,000 (25%) were called active. Roughly 26% stayed inconclusive and do not appear here. Calls come from the whole dose curve; as a rule, active = well fitted curve in the direction sought with a large enough effect; inconclusive = small, poorly fitted or top-dose-only effect, or effect the other way; inactive = no such curve, though single readings can be large or run the other way. Only a sample is shown.
Possible outcomes: YES (active), NO (inactive)

COc1ccc(Oc2ncc3ncc(=O)n(C)c3n2)cc1 = NO
CCOCCn1c(CN(Cc2ccccc2)Cc2ccccc2)nc2c1c(=O)[nH]c(=O)n2C = YES
CC(Oc1ccccc1)C(=O)Nc1nc2c(s1)C(=O)CC(C)(C)C2 (stereo unspecified) = YES
C[C@H](Oc1ccccc1)C(=O)N[C@@H]1C(=O)N2[C@@H]1SC(C)(C)[C@@H]2C(=O)O = NO
OC[C@@H]1O[C@@H](n2cnc3c(NC4CCCC4)ncnc32)[C@H](O)[C@H]1O = NO
Cc1noc(C)c1C(=O)N1CCC2(CCN(C(=O)NC(C)C)CC2)CC1 = NO
O=C(NC(=S)Nc1cccc(Cl)c1N1CCCCC1)c1cccs1 = YES
CCC(C(=O)Nc1cccc(C(F)(F)F)c1)c1ccccc1 (stereo unspecified) = YES
O=C(NC(=S)Nc1cccc(Cl)c1N1CCCCC1)c1ccco1 = YES
CC1(C)SC(=S)N(NC(=O)Nc2ccccc2)C1N(O)C(=O)Nc1ccccc1 (stereo unspecified) = YES
COC(=O)/C(=C\C(=O)c1ccccc1)Nc1cccc(C(F)(F)F)c1 = YES
O=C(CSc1ccc(C(F)(F)F)cc1[N+](=O)[O-])Nc1ccccc1 = NO
CC12CCC(C(=O)O)(C/C1=N\O)C2(C)C (stereo unspecified) = NO
CC1CCN(c2ccccc2NC(=S)NC(=O)c2cccs2)CC1 = YES
Cc1c(Cl)cccc1NC(=O)CCC(=O)NNC(=O)c1ccco1 = NO
C[C@@H](C(=O)Nc1ccc2ccccc2c1)[C@H]1C[C@]1(C)[C@H](NS(=O)(=O)c1ccc2ccccc2c1)c1ccccc1 = NO
CCOC(=O)Cn1c(CN(Cc2ccccc2)Cc2ccccc2)nc2c1c(=O)[nH]c(=O)n2C = YES
CCNc1nc(Sc2ccc(C)cc2)cc(C(F)(F)F)n1 = YES
Cc1ccc(Sc2cc(Cl)nc(N)n2)cc1 = NO
COC(=O)Cn1c(CN(Cc2ccccc2)Cc2ccccc2)nc2c1c(=O)[nH]c(=O)n2C = YES
Cn1c(=O)[nH]c(=O)c2c1nc(CN(Cc1ccccc1)Cc1ccccc1)n2CCN1CCOCC1 = YES

---

system-under-test: Cytochrome P450 2C9 (Homo sapiens)
assay-summary: Cytochrome panel assay with activity outcomes
particulars: recombinant CYP, pro-luciferin dealkylation, luminescence, p450-cyp2c9; series mostly up to 57.1 µM
Screen size: about 16,000 compounds; about 4,000 (25%) were called active. Not shown: some 26% with an inconclusive outcome. Calls come from the whole dose curve; as a rule, active = well fitted curve in the direction sought with a large enough effect; inconclusive = small, poorly fitted or top-dose-only effect, or effect the other way; inactive = no such curve, though single readings can be large or run the other way. A selection follows.
Possible outcomes: active, inactive

O=C(O)CCCCCCCC(=O)O = inactive
O=C1CC(SC(=Nc2ccccc2)Nc2ccccc2)C(=O)N1c1cccc(Cl)c1 (stereo unspecified) = active
CC(=O)N1CCC2(CC1)CN(Cc1ccccc1)C2 = inactive
COc1ccc(C(=O)N2CCC3(CCN(C(=O)Nc4cccc(F)c4)CC3)CC2)cc1 = inactive
CCOC(=O)NNC1CC(=O)N(c2ccc(OC)cc2)C1=O (stereo unspecified) = inactive
CCN=C(Nc1cccc(F)c1)SC1CC(=O)N(c2ccc(OC)cc2)C1=O (stereo unspecified) = active
C1CCc2nnnn2CC1 = inactive
O=C(Nc1nnc(CCS(=O)(=O)c2ccc(Br)cc2)s1)c1ccc([N+](=O)[O-])cc1 = inactive
N=C(N)SCCc1cnc[nH]1 = inactive
CCOc1ccc(/C=C/C2=Cc3c(sc(NC(=O)CSc4n[nH]c(N)n4)c3C#N)C(C)(C)C2)cc1 = active
Cc1cc(C)n(Cc2ccc(NC(=O)c3ccc(COc4ccccc4Br)cc3)cc2)n1 = active

---

system-under-test: Cytochrome P450 2C9 (Homo sapiens)
assay-summary: Cytochrome panel assay with activity outcomes; for activity, negative = inhibition: % is set by controls: 0 for no effect and ±100 for the full control effect
particulars: recombinant CYP, pro-luciferin dealkylation, luminescence, p450-cyp2c9; series mostly up to 57.1 µM
Among all 16,000 compounds or so, about 4,000 (25%) were called active. Not shown: some 26% with an inconclusive outcome. These entries were drawn from the full list.
List of activity, negative = inhibition values.
measurement-name: activity, negative = inhibition

CCn1c(CCCc2nc3c([nH]2)c(=O)n(C)c(=O)n3C)nc2c1c(=O)n(C)c(=O)n2C = 6.37% [at 11.4 µM] (inactive)
Cn1c(=O)c2c(nc(Cc3ccccc3)n2CC(=O)O)n(C)c1=O = -4.06% [at 11.4 µM] (inactive)
C[C@]12CC[C@H]3c4ccc(O)cc4CC[C@@H]3[C@H]1CC[C@@H]2OC(=O)CCC1CCCC1 = 17.9% [at 11.4 µM] (inactive)
CC(=O)OC[C@@H]1O[C@@H](O/N=C2/C[C@@H](O)[C@@H](O)[C@@H]3[C@@H]4C(=O)N(C5CCCCC5)C(=O)[C@H]4CC[C@H]23)[C@H](OC(C)=O)[C@H](OC(C)=O)[C@@H]1OC(C)=O = 9.42% [at 11.4 µM] (inactive)
O=C(O)[C@@H]1[C@@H](C(=O)NCc2cccnc2)[C@@H]2C=C[C@@H]1O2 = 0.756% [at 11.4 µM] (inactive)
CN(C)c1ccc2nc3c(C(=O)O)cc(=O)c(O)c-3oc2c1 = -29.4% [at 11.4 µM] (inactive)
OC[C@H](S)CS = -14.4% [at 11.4 µM] (inactive)
COc1cccc(-c2nc(NC3CCNCC3)c3ccccc3n2)c1 = 11.6% [at 2.29 µM] (inactive)
O=C1c2ccccc2C(=O)c2c(NC3CCCCC3)ccc(Nc3ccc(S(=O)(=O)O)cc3)c21 = -7.2% [at 11.4 µM] (inactive)
c1ccc(Nc2ncncc2-c2ccoc2)cc1 = 4.61% [at 2.29 µM] (inactive)
Clc1ccc2c(NCCNc3ccnc4cc(Cl)ccc34)ccnc2c1 = -3.79% [at 11.4 µM] (inactive)
CN(C)c1ccc(-c2nc(N3CCNCC3)c3ccccc3n2)cc1 = 0.369% [at 2.29 µM] (inactive)
Cn1c(=O)c2[nH]c(COCc3nc4c([nH]3)c(=O)n(C)c(=O)n4C)nc2n(C)c1=O = 7.37% [at 11.4 µM] (inactive)
S=c1c2[nH]cnc2ncn1CCSc1ncnc2nc[nH]c12 = -0.398% [at 11.4 µM] (inactive)
S[C@@H]1CCCN(Cc2ccccc2)C1 = -2.17% [at 11.4 µM] (inactive)
Cc1noc(C)c1-c1cncnc1Nc1ccccc1 = -0.353% [at 2.29 µM] (inactive)
Cn1c(=O)c2c(nc(NCCNc3nc4c(c(=O)n(C)c(=O)n4C)n3C)n2C)n(C)c1=O = 3.94% [at 11.4 µM] (inactive)
OC[C@@H](O)CNc1ncnc2ccccc12 = 23.8% [at 11.4 µM] (inactive)
CC(=O)NCCNc1ccnc(-c2ccccc2C(F)(F)F)n1 = 9.95% [at 2.29 µM] (inactive)
COc1cccc(-c2nccc(NCc3cccnc3)n2)c1 = 0.577% [at 2.29 µM] (inactive)
O=C(O)c1c[nH]c2c(ccc3[nH]cc(C(=O)O)c(=O)c32)c1=O = 12.3% [at 11.4 µM] (inactive)
CC(C)=CCC/C(C)=C/CO/N=C1/C[C@@H](O)[C@@H](O)[C@@H]2[C@@H]3C(=O)N(C4CCCCC4)C(=O)[C@H]3CC[C@H]12 = -5.92% [at 11.4 µM] (inactive)
Cc1noc(C)c1-c1ccc2ncnc(N(C)Cc3ccco3)c2c1 = -29% [at 2.29 µM] (inactive)
CN(C)c1ccc(/C=N\NC(=O)c2cnc3ccccc3c2)cc1 = -6.78% [at 11.4 µM] (inactive)
COc1ccccc1CNc1ccnc(-c2ccccc2OC)n1 = -5.44% [at 2.29 µM] (inactive)
CC(C)CO/N=C1/C[C@@H](O)[C@@H](O)[C@@H]2[C@@H]3C(=O)N(Cc4ccc5c(c4)OCO5)C(=O)[C@H]3CC[C@@H]12 = -17.6% [at 11.4 µM] (inactive)
CC(C)(C)c1ccc(O)c(CN(Cc2cc(C(C)(C)C)ccc2O)C2CCCCC2)c1 = -4.75% [at 11.4 µM] (inactive)
COC(=O)[C@H](CCSC)NC(=O)C/C=C\[C@@H](C)[C@@H](CO)OC = -1.66% [at 11.4 µM] (inactive)
CCOC(=O)CCN1C(=O)[C@H]2[C@H]3[C@H](O)[C@H](O)C/C(=N/OC[C@@H](O)COCc4ccco4)[C@@H]3CC[C@@H]2C1=O = -5.27% [at 11.4 µM] (inactive)
CC(C)CO/N=C1/C[C@@H](O)[C@@H](O)[C@@H]2[C@@H]3C(=O)N(Cc4ccc5c(c4)OCO5)C(=O)[C@H]3CC[C@H]12 = -12.4% [at 11.4 µM] (inactive)
Cc1ccccc1-c1cc(N(C)C)ncn1 = 9.36% [at 2.29 µM] (inactive)
COc1cccc(-c2cncnc2NC2CCNCC2)c1 = 28.5% [at 2.29 µM] (inactive)
CCOC(=O)N/N=C1/C[C@@H](O)[C@@H](O)[C@@H]2[C@@H]3C(=O)N(C(C)(C)C)C(=O)[C@H]3CC[C@@H]12 = 6.14% [at 11.4 µM] (inactive)
Nc1nc(N)c(CCCCc2ccccc2)c(N)n1 = 5.71% [at 11.4 µM] (inactive)
Cc1ccccc1-c1ccc2ncnc(NC3CC3)c2c1 = 19.9% [at 2.29 µM] (inactive)
O=C1C2=C(Nc3cc([N+](=O)[O-])ccc3N2)O[C@@H]1c1c[nH]c2ccc(COc3ccccc3)cc12 = -16.4% [at 11.4 µM] (inactive)
N=C(N)[C@H](N=Nc1ccccc1)C(N)=O = -7.82% [at 11.4 µM] (inactive)
CCOC(=O)c1cnc(N(C)C)nc1SC(=N)N = -5.38% [at 11.4 µM] (inactive)
Nc1nc2c(c(=O)[nH]1)N[C@H](CCNc1ccc(C(=O)O)cc1)CN2 = 10.2% [at 11.4 µM] (inactive)
c1cncc(-c2nc(N3CCNCC3)c3ccccc3n2)c1 = -1.35% [at 2.29 µM] (inactive)
Clc1ccccc1-c1nc(NCc2cccnc2)c2ccccc2n1 = -14.1% [at 2.29 µM] (inactive)
